Test system: thale cress
Experiment: Plant growth inhibition index, thale cress on agar medium in test tube (Evaluation 8, 9)
Type: in vivo, thale cress (Col-0, wild-type strain)
Design: key: 0: No effect; 1: Growth of the root part was inhibited 50% or less compared with non-treated area.; 2: Growth of the root part was inhibited 50% or more compared with non-treated area.; 3: Growth of the root part was substantially inhibited.; 4: Germination was inhibited
Conditions: Concentration 200 μM, 8 days (Evaluation 9, Table 2)
METRIC NAME: Index
One number for each entry.

> print(dat)
                                   compound  metric.name  observed.measurement
1  CCCCCCCCCOn1cccc1C(=O)N(C)C [Compound 9g]        Index                     3
2  CCCCCCCCCOn1cc(C)cc1C(=O)O [Compound 9c]        Index                     3
3  CCCCCCCCCOn1cc(Cl)cc1C(=O)O [Compound 9b]        Index                     3
4  CCCCCOn1cc(-c2ccccc2)cc1C(=O)O [Compound 9a]        Index                     4
5  CCCCCCCCCOn1cccc1C(=O)N1CCOCC1 [Compound 9h]        Index                     3

Now examine the next entry.
Give the measured Index of CCCCCCCCCOn1cccc1C(=O)NC [Compound 9d] .
3

###

For each entry below, report its plant growth inhibition index, Morning glory value.
System: morning glory
Test: Seed treatment, plant growth inhibition index (Evaluation 11)
Format: in vivo
Parameters: key: 0: No effect; 1: Growth of the root part was inhibited 50% or less compared with non-treated area.; 2: Growth of the root part was inhibited 50% or more compared with non-treated area.; 3: Growth of the root part was substantially inhibited.; 4: Germination was inhibited
Conditions: 200 μM, 6 days (9a, 9b: 7 days)
One number for each entry.

Some solved cases for reference:
> print(dat)
                  chemical.string  target.system  observed.measurement
1        CCCCCCCCCOn1cccc1C(=O)NC  morning glory                     0
2  CCCCCCCCCOn1cccc1C(=O)N1CCOCC1  morning glory                     0

Now examine the next entry.
Give the measured plant growth inhibition index, Morning glory of CCCCCCCCCOn1cccc1C(=O)NCc1ccccc1 .
0
